- Assay notes: Cytotoxicity, MTS assay, normal kidney cells
- Applied conditions: pig, LLC-PK1 kidney cells

Compound: N=C(N)NCCC[C@@H]1NC(=O)[C@H](CCCCNC(=O)[C@H](Cc2c[nH]c3ccccc23)NC(=O)[C@H](Cc2c[nH]c3ccccc23)NC(=O)[C@H](Cc2c[nH]c3ccccc23)NC(=O)[C@H](Cc2c[nH]c3ccccc23)NC(=O)[C@H](Cc2c[nH]c3ccccc23)NC(=O)[C@H](Cc2c[nH]c3ccccc23)NC(=O)[C@H](Cc2c[nH]c3ccccc23)NC(=O)CCN)NC(=O)[C@H](CCCNC(=N)N)NC(=O)[C@H](CCCNC(=N)N)NC(=O)[C@H](CCCNC(=N)N)NC(=O)[C@H](CCCNC(=N)N)NC1=O [[R5K]W7A]
viability at 24 h, 50 µM, %: 71
